Origin of the recorded values: PubChem BioAssay (NCATS)

# Method Description: AP1 Signaling Pathway (AID 357);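 also: ME-180 reporter cells stimulated with EGF at its EC50 level; % is scaled to controls: 0 for no effect and ±100 for the full control effect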
# Assay Conditions: ME-180 (cervical carcinoma) AP-1-bla reporter, EGF-induced, beta-lactamase ratio, 5 h; at 7.69 µM (top of the series) unless noted
Records with an inconclusive call do not appear.
Measured activity change, negative = inhibition, listed per entry.
Reported Metric: activity change, negative = inhibition (%)

[[record]]
input_smiles = "CN(C)c1ncc2nc(CCc3ccccc3)c(=O)n(Cc3ccc(F)cc3)c2n1"
numeric_result = 8.4

[[record]]
input_smiles = "FC(F)(F)c1ccccc1-c1nc(-n2ccnc2)c2ccccc2n1"
numeric_result = 9.46

[[record]]
input_smiles = "COc1cccc(Cn2c(=O)c(-c3ccccc3)nc3cncnc32)c1"
numeric_result = -16.5

[[record]]
input_smiles = "Cc1nc2cnc(Nc3ccccc3)nc2n(Cc2cccs2)c1=O"
numeric_result = 6.83

[[record]]
input_smiles = "Cn1cccc1C(=O)N1CCC[C@@]2(CCN(C(=O)Nc3cccc(F)c3)C2)C1"
numeric_result = -5.32

[[record]]
input_smiles = "COc1cccc(-c2cncnc2Nc2ccccc2)c1"
numeric_result = -6.33


====

# Method Description: qHTS Assay for Lipid Storage Modulators (AID 1519); also: % is scaled to controls: 0 for no effect and ±100 for the full control effect
# Assay Conditions: Drosophila S3 cells, BODIPY lipid droplet/cell ratio, laser cytometry; at 57.5 µM (top of the series); cells loaded with oleic acid
Results filed as inconclusive are left out.
Each entry below carries its reported activity change, negative = inhibition.
Reported Metric: activity change, negative = inhibition (%)

[[record]]
molecule = "O=C(Oc1ccccc1)N1CCC2(CC1)CCN(c1ccncc1)CC2"
reported_metric = "activity change, negative = inhibition"
units_text = "%"
numeric_result = 1.8

[[record]]
molecule = "COc1ccccc1-c1nc(NCCNC(C)=O)c2ccccc2n1"
reported_metric = "activity change, negative = inhibition"
units_text = "%"
numeric_result = 5.2

[[record]]
molecule = "COc1cccc(-c2ccc3ncnc(NCCc4c[nH]c5ccc(OC)cc45)c3c2)c1"
reported_metric = "activity change, negative = inhibition"
units_text = "%"
numeric_result = -3.93

[[record]]
molecule = "Cc1cnc(CNc2cc(-c3ccoc3)ncn2)cn1"
reported_metric = "activity change, negative = inhibition"
units_text = "%"
numeric_result = 3.62

[[record]]
molecule = "NC(Cc1ccc(O)c(O)c1)C(=O)O (stereo unspecified)"
reported_metric = "activity change, negative = inhibition"
units_text = "%"
numeric_result = 11.6

[[record]]
molecule = "CN1CCN(c2ncc3nc(-c4cccc(C#N)c4)c(=O)n(C[C@H]4CCCO4)c3n2)CC1"
reported_metric = "activity change, negative = inhibition"
units_text = "%"
numeric_result = 2.76

[[record]]
molecule = "Cn1cccc1C(=O)N1CCC[C@@]2(CCN(C(c3ccccc3)c3ccccc3)C2)C1"
reported_metric = "activity change, negative = inhibition"
units_text = "%"
numeric_result = 0.948

[[record]]
molecule = "CS(=O)(=O)N1CCC2(CCCN(Cc3ccccc3)C2)CC1"
reported_metric = "activity change, negative = inhibition"
units_text = "%"
numeric_result = 0.839

[[record]]
molecule = "Cc1cccc2c3c(ccc12)C1=C(C(=O)C3=O)C(C)CO1 (stereo unspecified)"
reported_metric = "activity change, negative = inhibition"
units_text = "%"
numeric_result = 8.95

[[record]]
molecule = "COc1ccccc1CNc1ncncc1-c1ccccc1CN(C)C"
reported_metric = "activity change, negative = inhibition"
units_text = "%"
numeric_result = 5.27

[[record]]
molecule = "COCC(=O)N1CCC2(CC1)CN(c1ccncc1)C2"
reported_metric = "activity change, negative = inhibition"
units_text = "%"
numeric_result = 2.59

